Reference for the values: PubChem BioAssay (EPA / NIEHS)

SUBJECT OF TEST: Nuclear receptor subfamily 4 group A member 2 (Homo sapiens)
ASSAY COMMENT: ATG_NURR1_TRANS: Attagene TRANS-FACTORIAL HepG2 Assay for human Nuclear Receptor Related Protein 1 (NURR1) (AID 2282985)
TEST CONTEXT: HepG2 Attagene TRANS reporter, mRNA readout
Experimental: ATG_TRANS is a cell-based, multiplexed-readout assay that uses HepG2, a human liver cell line, with measurements taken at 24 hours after chemical dosing in a 24-well plate.ATG_NURR1_TRANS is one of 30 assay component(s) measured or calculated from the ATG_TRANS assay. […] This assay endpoint, ATG_NURR1_TRANS, was analyzed in the positive analysis fitting direction relative to DMSO as the negative control and baseline of activity. […]
Records with an inconclusive call do not appear. Activity calls are given as the source filed them. The calls were made as follows: active = hit-call score of the fitted dose curve at least 0.9, where 1 is the maximum; inconclusive = response in the unintended direction; inactive = score below 0.9.
A correct response names exactly one class from active, inactive

[[record]]
molecule_smiles = "COc1cc(C(C)C)c2c(c1)S(=O)(=O)N(COc1cc(=O)n3cccc(OCCN4CCCCC4)c3n1)C2=O"
assigned_label = "inactive"


// outcome(item) with item = `O=C(O)CO`
active

Hey, what did the test say about `NCC(F)(F)C(F)(F)C(F)(F)C(F)(F)F` ?
inactive

Hi team, can someone confirm the assay call for `Cn1c(=O)c2[nH]cnc2n(C)c1=O` ?
inactive
